Catalogue of molecules with associated inhibition
# ASSAYED_SYSTEM: Tyrosine-protein kinase BTK (Homo sapiens);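 further: values are averaged percent inhibition of BTK enzyme activity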
# CONDITION_SUMMARY: at 0.1 µM
Numeric only. Scale: %

Answered cases to consult:
                                   molecule  result
0  COc1cccc(-n2ncc3c(N/N=C/c4ccc(F)cc4)ncnc32)c1    1.48
1  c1ccc(COc2ccc(Nc3ncnc4ccc(-c5ccco5)cc34)cc2)cc1    0.63
2  FC(F)(F)c1cccc(-c2nn3ncccc3c2-c2ccnc(Nc3ccc4c(c3)OCCO4)n2)c1   -0.12
3  O=S(=O)(CCNCc1ccc(-c2ccc3ncnc(Nc4ccc(OCc5cccc(F)c5)c(Cl)c4)c3c2)o1)c1ccccc1   -0.83
4  COc1ccc(-c2nn3ncccc3c2-c2ccnc(Nc3ccc4c(c3)OCCO4)n2)cc1    0.65

Consider CCn1cc(-c2ccnc3[nH]ccc23)c(-c2cccc(NC(=O)Nc3ccc(OCc4ccccc4)cc3)c2)n1 . Its measured inhibition is 0.34

Entry CS(=O)(=O)CCNCc1coc(-c2ccc3ncnc(Nc4ccc(OCc5ccccc5)cc4)c3c2)c1 , inhibition reported as -0.04

According to the records, this molecule Nc1nc(-c2ccc(F)cc2)c(-c2ccc3ncccc3n2)s1 displays inhibition of 0.27

// inhibition lookup, molecule = COc1cc(Nc2nccc(Nc3ccc4c(C)n[nH]c4c3)n2)cc(OC)c1OC , result: 7.82

Value of measured inhibition for the entry CCn1c(-c2nonc2N)nc2c(C#CC(C)(C)O)nc(OC[C@H](N)c3ccccc3)cc21 : 0.09

The value of inhibition measured for the molecule CC(=O)Nc1cccc(C#Cc2cncnc2Nc2ccc(OCc3cccc(F)c3)c(Cl)c2)c1 turned out to be 2.74

So, COc1cc2ncn(-c3cc(OCc4ccccc4C(F)(F)F)c(C(=O)N(C)C)s3)c2cc1OC ? Its inhibition was -1.28

// sample CCCN1CCC(c2ccc(Nc3nc(Nc4cc(F)ccc4C(N)=O)c4cc[nH]c4n3)c(OC)c2)CC1 , its inhibition was -1.53

Record summary for CC(C)COC(=O)c1ccc2c(c1)/C(=C/Nc1ccc(S(N)(=O)=O)cc1)C(=O)N2 : reported inhibition = -1.47

Summary for this molecule, COC(=O)Nc1nc2ccc(Oc3ccc(NC(=O)Nc4cccc(Cl)c4)cc3)cc2[nH]1 : inhibition is 0.06

So, CNC(=O)c1cc(-c2ccc(F)cc2)cc(-c2ccc(S(=O)(=O)N3CCCC3)cc2)c1N ? Its inhibition was -1.58

Given item COc1ccc2c(-c3ccnc(Nc4cccc(OC(F)(F)F)c4)n3)cnn2n1 , the value recorded as its inhibition is 1.66

# molecule CNC(=O)c1cncc(/C=C/c2ccccc2Cl)c1 ; its inhibition = 1.39

According to the records, this molecule COc1ccc2[nH]c3c4[nH]c5ccc(OC)cc5c4c4c(c3c2c1)C(=O)NC4=O displays inhibition of 0.07

Entry Fc1ccc(-c2nn3ccccc3c2-c2ccncc2)cc1 ; inhibition = -2.02

The reported inhibition of the molecule Cc1ccc(O)cc1Nc1ccnc2cc(-c3ccccn3)ccc12 was 4.79

Lookup result for Cc1cccc(Nc2ncc(-c3ccccc3)o2)c1 ; measured inhibition: 0.69
